- TEST_METHOD_NOTES: Toxicity liver stage against HepG2, at 10uM
- Format: cell-based
- Design: test concentration 10 uM, cell line HepG2-A16-CD81EGFP
- MEASUREMENT_SETUP: human, HepG2-A16-CD81EGFP cells; read-out: INHIBITION
# key: entry, value: cytotoxicity at 10 µM
Hi! Could you send only the number? It should be in %, unit omitted.

COMPOUND	UNIT_OF_MEASUREMENT	cytotoxicity at 10 µM
Cc1cc(CN2C[C@@H]3CC[C@H]2CN(C2Cc4ccccc4C2)C3)on1	%	1.58
Cc1nc(NCC2CC2)nc2c1COCC21CCN(C(=O)C(C)(C)C)C1 (stereo not drawn)	%	-77.8
Cc1ccc(C(=O)NS(=O)(=O)Cc2ccccc2)cc1S(C)(=O)=O	%	3.09

The compound identified as Cc1nc[nH]c1-c1nc2cc(S(=O)(=O)N3CCCC3)ccc2n1C registered its cytotoxicity at 10 µM at -14.2

The compound identified as Cn1c(CCC(=O)N2CCCC3(CNC(=O)O3)C2)nc2cccnc21 (stereo not drawn) registered its cytotoxicity at 10 µM at 2.3

The compound identified as CN(CCOc1cccc(S(C)(=O)=O)c1)c1ccccc1 registered its cytotoxicity at 10 µM at 2.3

The compound identified as CCCc1ccc(S(=O)(=O)NC2(CC(N)=O)CCC2)cc1 registered its cytotoxicity at 10 µM at 17.9

The compound identified as Cc1cnn(CCNCc2csc(COc3ccccc3)n2)c1 registered its cytotoxicity at 10 µM at 1.77

The compound identified as CCCc1nc(CN2CCN(CC(O)c3ccccc3)CC2)no1 (stereo not drawn) registered its cytotoxicity at 10 µM at -2.89

The compound identified as OCCCNc1cccc(COC2CCCCC2)c1 registered its cytotoxicity at 10 µM at -0.23

The compound identified as Cc1cccc(OCC(=O)N2CCN(C3CCOC3=O)CC2)c1C (stereo not drawn) registered its cytotoxicity at 10 µM at -15

The compound identified as Cn1cc(CC2CCN(C(=O)NCCCc3ccc(O)cc3)C2)cn1 (stereo not drawn) registered its cytotoxicity at 10 µM at 0.557

The compound identified as O=S(=O)(c1ccc(Cl)cc1)N1CCC(OCc2ccccn2)C1 (stereo not drawn) registered its cytotoxicity at 10 µM at 1.48

The compound identified as Cc1ccsc1CN(Cc1cccnc1)C1CC(C)(C)NC(C)(C)C1 registered its cytotoxicity at 10 µM at -10.7

----------
- TEST_METHOD_NOTES: Toxicity liver stage against HepG2, at 10uM
- Assay type: cell-based
- Design: test concentration 10 uM, cell line HepG2-A16-CD81EGFP
- MEASUREMENT_SETUP: human, HepG2-A16-CD81EGFP cells; read-out: INHIBITION
QUANTITY: cytotoxicity at 10 µM
For clarity, give the value followed by its unit.

COMPOUND	VAL
O=C(NC1CC1)C1CCN(c2cccc(C(F)(F)F)n2)CC1	5.17%
CCC(NC(=O)C1CCN(S(C)(=O)=O)CC1)c1ccc(C)cc1 (stereo not drawn)	-5.85%
CC(C)N(CC(N)=O)CC(=O)NCCc1c(F)cccc1F	-4.97%
Cc1ccc(S(=O)(=O)N2CSCC2C(=O)NCC(F)(F)F)cc1C (stereo not drawn)	-0.855%

The compound identified as O=C1[C@H]2CN(Cc3ccoc3)C[C@H]2CN1Cc1ccncc1 registered its cytotoxicity at 10 µM at -14.1%

----------
# key: entry, value: cytotoxicity at 10 µM
- TEST_METHOD_NOTES: Toxicity liver stage against HepG2, at 10uM
- Assay type: cell-based
- Set-up: test concentration 10 uM, cell line HepG2-A16-CD81EGFP
- MEASUREMENT_SETUP: human, HepG2-A16-CD81EGFP cells; read-out: INHIBITION
Hi! Could you send only the number? It should be in %, unit omitted.

For orientation, consider the following solved cases.
COMPOUND	cytotoxicity at 10 µM [%]
Cc1nnc(NC(=O)CN2CCc3nn(C)c(=O)cc3C2)s1	-6.18
N#Cc1cccc(N2CCC3(CCC(=O)N(CCCO)C3)CC2)n1	2.11
Cc1ccsc1CNC(=O)N(C)Cc1cnn(C)c1	-6.25

The compound identified as CCOC(=O)N1CCC(NC(=O)Nc2cccnc2OCC)CC1 registered its cytotoxicity at 10 µM at -31.9

The compound identified as Cc1nn(-c2ccccc2)c(C)c1CN1CCNCC1 registered its cytotoxicity at 10 µM at 6.19

The compound identified as CCOc1ccc(NC(C)C(=O)Nc2cc(C)no2)cc1 (stereo not given) registered its cytotoxicity at 10 µM at 7.04

The compound identified as COCCN1CCC2(CC1)CN(C(=O)c1cccs1)CCO2 registered its cytotoxicity at 10 µM at -14.1

The compound identified as Cc1csc(CN(C)S(=O)(=O)c2ccc(C)c(N(C)C)c2)n1 registered its cytotoxicity at 10 µM at 13.7

The compound identified as O=C(NCc1ccccc1CN1CCCC1)Nc1nncs1 registered its cytotoxicity at 10 µM at 6.13

The compound identified as NC(=O)[C@@H]1CCCN1C(=O)c1csc(-c2ccc(C(F)(F)F)cc2)n1 registered its cytotoxicity at 10 µM at -2

----------
- TEST_METHOD_NOTES: Toxicity liver stage against HepG2, at 10uM
- Assay type: cell-based
- Set-up: test concentration 10 uM, cell line HepG2-A16-CD81EGFP
- MEASUREMENT_SETUP: human, HepG2-A16-CD81EGFP cells; read-out: INHIBITION
# key: entry, value: cytotoxicity at 10 µM
Hi! Could you send only the number? It should be in %, unit omitted.

COMPOUND	cytotoxicity at 10 µM / %
C1CC(CN2C[C@@H]3C[C@@H](c4nnc(C5CC5)o4)O[C@@H]3C2)CCO1	6.58
COc1cc(F)c(S(=O)(=O)Nc2cnc(O)cc2C)cc1OC	5.66

The compound identified as O=C(Cn1cnnn1)NCC1(O)CCCc2ccccc21 (configuration not stated) registered its cytotoxicity at 10 µM at -42.3

The compound identified as CCOCCNC(=O)CCC1CCCO1 (configuration not stated) registered its cytotoxicity at 10 µM at -122

The compound identified as Cc1ccc(NC(=O)N2CC(C(=O)NC(C)C)C3(CCOCC3)C2)cc1 (configuration not stated) registered its cytotoxicity at 10 µM at -74.3

----------
- TEST_METHOD_NOTES: Toxicity liver stage against HepG2, at 10uM
- Format: cell-based
- Parameters: test concentration 10 uM, cell line HepG2-A16-CD81EGFP
- MEASUREMENT_SETUP: human, HepG2-A16-CD81EGFP cells; read-out: INHIBITION
QUANTITY: cytotoxicity at 10 µM (%)
Hi! Could you send only the number? It should be in %, unit omitted.

For orientation, consider the following solved cases.
MOLECULE	cytotoxicity at 10 µM (%)
Cc1ccc(OCC(C)NS(=O)(=O)Cc2ccon2)cc1 (stereo not given)	-4.84
CCOCC(=O)NCc1cc(C2CC2)n(C2CCCC2)n1	-0.165
CCS(=O)(=O)N1CC[C@H]2CO[C@H](CN(C)C)[C@H]2C1	-72
Cc1ccn(C)c(=O)c1NC(=O)N(C)Cc1cccc(OC(C)C)c1	2.29

The molecule identified as COc1ccc(Nc2cc(C)nc(C)n2)cc1N1CCCC1=O registered its cytotoxicity at 10 µM at -2.19

----------
- TEST_METHOD_NOTES: Toxicity liver stage against HepG2, at 10uM
- Type: cell-based
- Parameters: test concentration 10 uM, cell line HepG2-A16-CD81EGFP
- MEASUREMENT_SETUP: human, HepG2-A16-CD81EGFP cells; read-out: INHIBITION
QUANTITY: cytotoxicity at 10 µM (%)
Hi! Could you send only the number? It should be in %, unit omitted.

For orientation, consider the following solved cases.
MOLECULE	QUANTITY	VAL
CCCc1nnsc1C(=O)NCC1CCN(c2ncccn2)CC1	cytotoxicity at 10 µM	10.6
CCC(C)(NCc1cccc(NC(C)=O)c1)c1nc(C)cs1 (stereo unspecified)	cytotoxicity at 10 µM	-2.27

The molecule identified as CCC(O)CN1CCN(C(=O)c2ccn(-c3cccc(F)c3)n2)CC1 (stereo unspecified) registered its cytotoxicity at 10 µM at -1.65

The molecule identified as Cc1cccc(S(=O)(=O)NC(=O)c2ccc3c(c2)nnn3C)c1 registered its cytotoxicity at 10 µM at -8.97

The molecule identified as COCCCN1Cc2cccc(NC(=O)c3cc(F)cc(F)c3)c2C1 registered its cytotoxicity at 10 µM at 2.28

The molecule identified as CC(C)(C#N)c1ccccc1CN1CCC(N2CCCC2=O)CC1 registered its cytotoxicity at 10 µM at 2.35
